- TARGET_UNDER_TEST: Env of HIV-1 strain H086.8 (HIV-1)
- PROTOCOL_NOTES: cell-based or functional assay
The entries below are paired with their reported neutralization IC50.

# BINDER, VALUE_TYPE, READOUT_VALUE
records = [
    ("γ44κ61 (antibody, V domains shown) VH: QIHLVQSGTEVKKPGSSVTVSCKAYEVNTFGLYAVNWVRQAPGQSLEYIGQIWRWKSSASHHFRGRVLISAVDLTGSSPPISSLEIKNVTSDDTAVYFCTTTSTHDKWSGLHHDGVMAFSSWGQGTLISVSA VL: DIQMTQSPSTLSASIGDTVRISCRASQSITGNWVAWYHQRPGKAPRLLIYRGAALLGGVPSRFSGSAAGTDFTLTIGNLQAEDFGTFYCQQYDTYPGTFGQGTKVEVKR", "neutralization IC50", "> 15 µg/mL"),
]

Next item in the queue.
Quick one: neutralization IC50 of γ15κ11 (antibody, V domains shown) VH: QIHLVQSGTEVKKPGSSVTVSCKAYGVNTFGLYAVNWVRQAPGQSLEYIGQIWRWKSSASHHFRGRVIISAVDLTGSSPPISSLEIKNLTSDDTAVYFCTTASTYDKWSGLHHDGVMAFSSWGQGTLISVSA VL: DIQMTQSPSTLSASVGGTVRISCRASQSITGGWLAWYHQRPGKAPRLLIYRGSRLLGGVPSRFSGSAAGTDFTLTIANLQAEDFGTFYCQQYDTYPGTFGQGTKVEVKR ?
> 15 µg/mL
